# target_entity: Cathepsin S (Homo sapiens)
# Sequence (P25774 whole entry): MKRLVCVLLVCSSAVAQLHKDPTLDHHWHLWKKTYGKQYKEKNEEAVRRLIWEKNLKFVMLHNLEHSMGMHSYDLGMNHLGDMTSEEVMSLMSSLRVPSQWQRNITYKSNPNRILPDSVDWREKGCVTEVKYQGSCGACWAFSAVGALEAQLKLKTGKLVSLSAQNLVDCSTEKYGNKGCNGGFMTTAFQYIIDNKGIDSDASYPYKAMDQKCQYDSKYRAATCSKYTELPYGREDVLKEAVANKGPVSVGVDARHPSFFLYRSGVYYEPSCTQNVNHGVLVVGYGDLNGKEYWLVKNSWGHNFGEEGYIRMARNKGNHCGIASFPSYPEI
# method_summary: Inhibition of human recombinant cathepsin S expressed in baculovirus expression sytem after 15 mins by FRET assay
pIC50: −log10 of the molar value.
# pIC50 values compiled below

compound	target_entity	pIC50
CCN1CCc2c(c(-c3ccc(C(F)(F)F)c(SCC(=O)N4CCCC4)c3)nn2CC(O)CN2CCC(c3ccccn3)CC2)C1 (racemic)	Cathepsin S (Homo sapiens)	6.60
C[C@H]1CCCCN1CC(O)Cn1nc(-c2ccc(C(F)(F)F)c(SCC(=O)N3CCOCC3)c2)c2c1CCN(S(C)(=O)=O)C2 (mixture of isomers)	Cathepsin S (Homo sapiens)	6.52
CS(=O)(=O)N1CCc2c(c(-c3ccc(C(F)(F)F)c(SCC(=O)N4CCCCC4)c3)nn2CCCN2CCC(N3CCCC3=O)CC2)C1	Cathepsin S (Homo sapiens)	7.15
CS(=O)(=O)N1CCc2c(c(-c3ccc(C(F)(F)F)c(SCC(=O)N4CCCC4)c3)nn2CC(O)CN2CCC(c3ccccn3)CC2)C1 (racemic)	Cathepsin S (Homo sapiens)	9.00
CN1CCN(C(=O)CSc2cc(-c3nn(CCCN4CCC(N5CCCC5=O)CC4)c4c3CN(S(C)(=O)=O)CC4)ccc2C(F)(F)F)CC1	Cathepsin S (Homo sapiens)	6.13
CS(=O)(=O)N1CCc2c(c(-c3ccc(C(F)(F)F)c(SCC(=O)N4CC[C@@H](O)C4)c3)nn2CC(O)CN2CCC(c3ccccn3)CC2)C1 (mixture of isomers)	Cathepsin S (Homo sapiens)	8.15
CC(=O)N1CCc2c(c(-c3ccc(C(F)(F)F)c(SCC(=O)N4CCCC4)c3)nn2CC(O)CN2CCC(C)CC2)C1 (racemic)	Cathepsin S (Homo sapiens)	6.74
COc1ccccc1C1CCN(CC(O)Cn2nc(-c3ccc(C(F)(F)F)c(SCC(=O)N4CCOCC4)c3)c3c2CCNC3)CC1 (racemic)	Cathepsin S (Homo sapiens)	6.72
CS(=O)(=O)N1CCc2c(c(-c3ccc(C(F)(F)F)c(SCC(=O)N4CCCC4)c3)nn2CCCN2CCC(C(=O)N3CCCC3)CC2)C1	Cathepsin S (Homo sapiens)	7.40
CS(=O)(=O)N1CCc2c(c(-c3ccc(C(F)(F)F)c(SCC(=O)N4CC[C@H](O)C4)c3)nn2CC(O)CN2CCC(c3ccccn3)CC2)C1 (stereo partly drawn)	Cathepsin S (Homo sapiens)	8.15
CS(=O)(=O)N1CCc2c(c(-c3ccc(C(F)(F)F)c(SCC(=O)N4CCOCC4)c3)nn2CC(O)CN2CCC(c3ccccc3F)CC2)C1 (racemic)	Cathepsin S (Homo sapiens)	8.00
CC1CCN(C(=O)CSc2cc(-c3nn(CCCN4CCC(N5CCCC5=O)CC4)c4c3CN(S(C)(=O)=O)CC4)ccc2C(F)(F)F)CC1	Cathepsin S (Homo sapiens)	6.68
CS(=O)(=O)N1CCc2c(c(-c3ccc(C(F)(F)F)c(SCC(=O)N4CCOCC4)c3)nn2CCCN2CCC(N3CCCC3=O)CC2)C1	Cathepsin S (Homo sapiens)	7.70

* * *

Readings of IC50 for the listed compounds
# target_entity: Cathepsin S (Homo sapiens)
# method_summary: Inhibition of cathepsin S in human JY cells assessed as accumulation of invariant chain p10li after 24 hrs by Western blot analysis
# Assay type: cell-based

compound	value_modifier	IC50, nM
CS(=O)(=O)N1CCc2c(c(-c3ccc(C(F)(F)F)c(SCC(=O)N4CCCC4)c3)nn2CC(O)CN2CCC(c3ccccn3)CC2)C1 (racemic)	=	470
CS(=O)(=O)N1CCc2c(c(-c3ccc(C(F)(F)F)c(SCC(=O)N4CCOCC4)c3)nn2CC(O)CN2CCC(c3ccccn3)CC2)C1 (racemic)	=	380
CS(=O)(=O)N1CCc2c(c(-c3ccc(C(F)(F)F)c(SCC(=O)N4CCOCC4)c3)nn2CCCN2CCC(N3CCCC3=O)CC2)C1	=	450
CS(=O)(=O)N1CCc2c(c(-c3ccc(C(F)(F)F)c(SCC(=O)N4CCCCC4)c3)nn2CC(O)CN2CCC(c3ccccn3)CC2)C1 (stereo not drawn)	=	1540
CS(=O)(=O)N1CCc2c(c(-c3ccc(C(F)(F)F)c(SCC(=O)N4CCCC4)c3)nn2CCCN2CCC(N3CCCC3=O)CC2)C1	=	1970
CS(=O)(=O)N1CCc2c(c(-c3ccc(C(F)(F)F)c(SCC(=O)N4CCCC4)c3)nn2CCCN2CCC(C(=O)N3CCCC3)CC2)C1	=	280
CC(=O)N1CCc2c(c(-c3ccc(C(F)(F)F)c(SCC(=O)N4CCCC4)c3)nn2CC(O)CN2CCC(C)CC2)C1 (racemic)	=	80
COc1ccccc1C1CCN(CC(O)Cn2nc(-c3ccc(C(F)(F)F)c(SCC(=O)N4CCOCC4)c3)c3c2CCN(C(C)=O)C3)CC1 (racemic)	=	900
CS(=O)(=O)N1CCc2c(c(-c3ccc(C(F)(F)F)c(SCC(=O)N4CCOCC4)c3)nn2CC(O)CN2CCC(c3ccccc3F)CC2)C1 (racemic)	=	3130
O=C(CSc1cc(-c2nn(CC(O)CN3CCC(c4ccccn4)CC3)c3c2CNCC3)ccc1C(F)(F)F)N1CCOCC1 (racemic)	=	1680
COc1ccccc1C1CCN(CC(O)Cn2nc(-c3ccc(C(F)(F)F)c(SCC(=O)N4CCCC4)c3)c3c2CCNC3)CC1 (racemic)	=	120
CS(=O)(=O)N1CCc2c(c(-c3ccc(C(F)(F)F)c(SCC(=O)N4CCCCC4)c3)nn2CCCN2CCC(N3CCCC3=O)CC2)C1	=	3920
COc1ccccc1C1CCN(CC(O)Cn2nc(-c3ccc(C(F)(F)F)c(SCC(=O)N4CCOCC4)c3)c3c2CCN(C(=O)CO)C3)CC1 (racemic)	=	480
CN1CCN(C(=O)CSc2cc(-c3nn(CCCN4CCC(N5CCCC5=O)CC4)c4c3CN(S(C)(=O)=O)CC4)ccc2C(F)(F)F)CC1	=	110
COc1ccccc1C1CCN(CC(O)Cn2nc(-c3ccc(C(F)(F)F)c(SCC(=O)N4CCOCC4)c3)c3c2CCNC3)CC1 (racemic)	=	1850
CC1CCN(C(=O)CSc2cc(-c3nn(CCCN4CCC(N5CCCC5=O)CC4)c4c3CN(S(C)(=O)=O)CC4)ccc2C(F)(F)F)CC1	=	8000
O=C(CSc1cc(-c2nn(CC(O)CN3CCC(c4ccccn4)CC3)c3c2CN(C(=O)CO)CC3)ccc1C(F)(F)F)N1CCOCC1 (racemic)	=	160
C[C@H]1CCCCN1CC(O)Cn1nc(-c2ccc(C(F)(F)F)c(SCC(=O)N3CCOCC3)c2)c2c1CCN(S(C)(=O)=O)C2 (mixture of isomers)	=	10000
CS(=O)(=O)N1CCc2c(c(-c3ccc(C(F)(F)F)c(SCC(=O)N4CC[C@H](O)C4)c3)nn2CC(O)CN2CCC(c3ccccn3)CC2)C1 (stereo partly drawn)	=	30
CC(=O)N1CCc2c(c(-c3ccc(C(F)(F)F)c(SCC(=O)N4CCCC4)c3)nn2CC(O)CN2CCC(C(C)(C)O)CC2)C1 (racemic)	=	110
CC1CCCN1C(=O)CSc1cc(-c2nn(CCCN3CCC(N4CCCC4=O)CC3)c3c2CN(S(C)(=O)=O)CC3)ccc1C(F)(F)F (stereo not drawn)	=	6000
CS(=O)(=O)N1CCc2c(c(-c3ccc(C(F)(F)F)c(SCC(=O)N4CC[C@@H](O)C4)c3)nn2CC(O)CN2CCC(c3ccccn3)CC2)C1 (mixture of isomers)	=	30
COc1ccccc1C1CCN(CC(O)Cn2nc(-c3ccc(C(F)(F)F)c(SCC(=O)N4CCOCC4)c3)c3c2CCN(S(C)(=O)=O)C3)CC1 (racemic)	=	190
CS(=O)(=O)N1CCc2c(c(-c3ccc(C(F)(F)F)c(SCC(=O)N4CCC(O)C4)c3)nn2CCCN2CCC(N3CCCC3=O)CC2)C1 (racemic)	=	520
CS(=O)(=O)N1CCc2c(c(-c3ccc(C(F)(F)F)c(SCCNC(=O)Cc4ccccc4)c3)nn2CC(O)CN2CCC(N3CCCC3=O)CC2)C1 (stereo not drawn)	>	10000
CS(=O)(=O)N1CCc2c(c(-c3ccc(C(F)(F)F)c(SCCN4CCCCC4)c3)nn2CCCN2CCC(N3CCCC3=O)CC2)C1	=	40
CS(=O)(=O)N1CCc2c(c(-c3ccc(C(F)(F)F)c(SCC(=O)NCc4ccccc4)c3)nn2CCCN2CCC(N3CCCC3=O)CC2)C1	=	10000
CS(=O)(=O)N1CCc2c(c(-c3ccc(C(F)(F)F)c(SCC(=O)N4CCC(CO)CC4)c3)nn2CCCN2CCC(N3CCCC3=O)CC2)C1	=	340
